biological target: human transthyretin (TTR) (Homo sapiens); construct: purchased Calbiochem 529577; test: TTR fluorescence polarization competitive binding assay (F-T4 probe); conditions: TTR IC50, mass concentration given beside the μM value
Result type: IC50

# IC50 of CC(C)(c1cc(Br)c(O)c(Br)c1)c1cc(Br)c(OCC(Br)CBr)c(Br)c1 (stereo not shown) [TBBPA-MDBPE, TBBPA-mono(2,3-dibromopropyl ether)] = 0.99 µM

---

molecular target: human transthyretin (TTR) (Homo sapiens); construct: purchased Calbiochem 529577; assay: TTR fluorescence polarization competitive binding assay (F-T4 probe); settings: TTR IC50, […] nM TTR, 50 nM F-T4, pH 7.5, 25°C; linear interpolation
Result type: IC50 (nM)
Entry rule: numbers only, all in nM.

Entry CC(C)(c1cc(Br)c(O)c(Br)c1)c1cc(Br)c(OCC(Br)CBr)c(Br)c1 (stereo not shown) , tested on human transthyretin (TTR) (Homo sapiens), has a reported IC50 of 1000

Where these numbers come from: paper PMC7584160
